- System: A673/TR/shEF
- METHOD_DESCRIPTION: cell viability (LOESS-normalised, relative to median of negative controls) (log2 ratio); higher = more viable cells (less compound effect), active = hit call of the paper (over 3 MAD below the median)
- TEST_CONTEXT: 2.5 µM; library screen: screen2; EWS-FLI1 expression: low (doxycycline-induced shRNA knockdown); treatment time: 72 h
Out of some 3,200 compounds screened, about 300 (9.4%) showed activity. Only a selection was taken, and actives are over-represented in it overall.
METRIC_NAME: cell viability (log2)

{"columns": ["COMPOUND", "RESULT"],
 "data": [
  ["CCCCCCC(C)(C)c1ccc([C@H]2C[C@@H](O)CC[C@H]2CCCO)c(O)c1", "0.122 (inactive)"],
  ["C[C@@H](N)Cc1cnc[nH]1", "0.00233 (inactive)"],
  ["C=CCN1CC[C@]23c4c5ccc(O)c4O[C@@H]2/C(=N/N=C2\\CC[C@@]4(O)C6Cc7ccc(O)c8c7[C@@]4(CCN6CC=C)[C@@H]2O8)CC[C@@]3(O)C1C5", "0.0511 (inactive)"],
  ["COc1ccccc1N1CCNCC1", "0.0929 (inactive)"],
  ["CC(C)NC(C)Cc1ccc(I)cc1 (stereo unspecified)", "0.0526 (inactive)"],
  ["C[C@]12Cc3cn4c(nc3C=C1CCC1C2CC[C@@]2(C)[C@H]1CC[C@@]2(O)C#N)nc1ccccc14 (stereo partly specified)", "0.0843 (inactive)"],
  ["CC(C)N(CCC(C(N)=O)(c1ccccc1)c1ccccn1)C(C)C (stereo unspecified)", "0.0918 (inactive)"],
  ["C[C@@H]1C[C@@H]([C@H](O)CC2CC(=O)NC(=O)C2)C(=O)[C@@H](C)C1", "-0.399 (active)"],
  ["C[N+]1(C)[C@H]2CC(OC(=O)C(CO)c3ccccc3)C[C@H]1[C@H]1O[C@H]12 (stereo partly specified)", "-0.00973 (inactive)"],
  ["C=CCN1CCC2(C)c3cc(O)ccc3CC1C2C (stereo unspecified)", "0.0707 (inactive)"],
  ["CNNC", "0.0817 (inactive)"],
  ["CC[C@@H]1/C=C/C=C/C[C@H](C)[C@@H](O)[C@](C)(O)C(=O)[C@H](C)[C@@H](O)[C@H](C)C(=O)[C@H](C)[C@@H](O)[C@H](C)/C=C/C(=O)O[C@H]2[C@@H](C)[C@@H](CC1)O[C@@]1(CC[C@@H](C)[C@@H](C[C@H](C)O)O1)[C@@H]2C", "-0.154 (active)"],
  ["C[C@@]12C(=O)OC(=O)[C@]1(C)[C@H]1CC[C@@H]2O1", "0.00613 (inactive)"],
  ["c1ccc2nc(N3CCNCC3)ccc2c1", "0.00635 (inactive)"],
  ["COc1cc(CC(C)N)c(OC)cc1I (stereo unspecified)", "0.083 (inactive)"],
  ["CC1O[C@H](O[C@H]2C[C@@H](O)[C@]3(CO)C4C(O)C[C@]5(C)C(C6COC(=O)C6)CC[C@]5(O)C4CC[C@]3(O)C2)C(O)C(O)[C@H]1O (stereo partly specified)", "0.134 (inactive)"]
]}
